Let's look at some molecules and their measured Activity.
# MEASURED TARGET: Enteropeptidase (Homo sapiens)
# PROTOCOL SUMMARY: Inhibition of full length recombinant human EP expressed in CHO cells assessed as protease activity using […] as substrate at 10 uM by fluorescence assay relative to control
# Parameters: scale not given: the % may be the effect or the level left
MEASURED METRIC: Activity

INSERT INTO assay_data (molecule, measured_metric, test_value) VALUES
  ('N=C(N)Nc1ccc(C(=O)Oc2ccc(CC(=O)N[C@@H](CC(=O)O)C(=O)O)n3ncnc23)cc1', 'Activity', '101%'),
  ('O=C(O)Cc1ccc(OC(=O)c2ccc(C3=NCCN3)cc2)c2ncnn12', 'Activity', '58.6%'),
  ('N=C(N)Nc1ccc(C(=O)Oc2cc(CC(=O)O)cn3ncnc23)cc1', 'Activity', '101%'),
  ('N=C(N)Nc1ccc(C(=O)Oc2ccc(CC(=O)NCC(=O)O)n3ncnc23)cc1', 'Activity', '100%'),
  ('N=C(N)Nc1ccc(C(=O)Oc2ccc(CC(=O)O)n3ncnc23)cc1', 'Activity', '100%');
